Molecular target: T1, HLA-DRB1*11:01 (biochemical MHC-peptide affinity assay) (human)
T1 chain 1: not shown
T1 chain 2: not shown
Test: biochemical MHC-peptide affinity assay
MEASUREMENT LABEL: Measured affinity (nM)
Return type: number; implicit unit nM.

Q. # Measured affinity lookup, item DLEELEVLERKPAAG (modifications not checked)
A. 63

Q. # Measured affinity lookup, item LAPTWEELSKKEFPG (modifications not checked)
A. 174

Q. # Measured affinity lookup, item DVNEYAPVFKEKSYK (modifications not checked)
A. 223

Q. # Measured affinity lookup, item YEDKFRNNLKGKRLD (modifications not checked)
A. 254

Q. # Measured affinity lookup, item TRNEVIPMSHPGAVD (modifications not checked)
A. 36

Q. # Measured affinity lookup, item GQQWTYEQRKIVE (modifications not checked)
A. 145

Q. # Measured affinity lookup, item ENPYFAPNPKIIRQ (modifications not checked)
A. 128

Q. # Measured affinity lookup, item EPAEFIIDTRDAGYG (modifications not checked)
A. 195

Q. # Measured affinity lookup, item LNELKPISKGGHSS (modifications not checked)
A. 67

Q. # Measured affinity lookup, item IAGEWQVLHREGAIT (modifications not checked)
A. 35

Q. # Measured affinity lookup, item EGEYQGIPRAESGG (modifications not checked)
A. 159

Q. # Measured affinity lookup, item GPFSFSVIDKPPG (modifications not checked)
A. 209

Q. # Measured affinity lookup, item GMNIVEAMERFGSRNG (modifications not checked)
A. 79
